These measurements were taken from paper PMC7261837.

- assay-system: Recombinant AChE (Homo sapiens)
- Sequence (P22303 32-614): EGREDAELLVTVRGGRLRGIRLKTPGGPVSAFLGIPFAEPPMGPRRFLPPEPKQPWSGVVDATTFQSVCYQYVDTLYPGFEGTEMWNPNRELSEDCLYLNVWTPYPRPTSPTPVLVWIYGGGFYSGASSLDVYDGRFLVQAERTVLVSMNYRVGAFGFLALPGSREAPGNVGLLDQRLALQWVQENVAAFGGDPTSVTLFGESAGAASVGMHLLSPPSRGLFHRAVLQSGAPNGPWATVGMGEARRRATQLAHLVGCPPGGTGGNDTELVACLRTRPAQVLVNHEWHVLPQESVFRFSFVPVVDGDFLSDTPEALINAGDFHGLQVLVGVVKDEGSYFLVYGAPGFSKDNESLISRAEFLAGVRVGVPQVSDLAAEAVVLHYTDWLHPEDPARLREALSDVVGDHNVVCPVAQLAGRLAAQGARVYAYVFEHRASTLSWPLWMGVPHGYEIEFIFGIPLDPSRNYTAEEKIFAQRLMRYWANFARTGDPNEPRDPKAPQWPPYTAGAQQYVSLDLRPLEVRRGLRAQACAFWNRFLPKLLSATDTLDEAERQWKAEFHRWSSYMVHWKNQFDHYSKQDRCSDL
- experiment-summary: biochemical
- protocol-conditions: SPR, 25°C, 1:1 Langmuir binding model; read-out: AChE Affinity Kd
pKd: −log10 of the molar value.
This listing pairs compounds with measured pKd.
value-kind: pKd

>>> test_result("C[C@@H]1NC(=O)c2cc(O)c(O)cc2-n2c1nc1ccccc1c2=O [2-hydroxycircumdatin C]")
5.44
>>> test_result("C[C@@H]1NC(=O)c2cc(O)ccc2-n2c1nc1c(O)cccc1c2=O [circumdatin I]")
4.19
>>> test_result("C[C@@H]1NC(=O)c2ccccc2-n2c1nc1c(O)cccc1c2=O [circumdatin G]")
3.92
>>> test_result("C[C@@H]1NC(=O)c2ccccc2-n2c1nc1ccccc1c2=O [circumdatin F]")
3.62
>>> test_result("COc1ccc2nc3n(c(=O)c2c1)-c1ccccc1C(=O)N1CCC[C@@H]31 [circumdatin H]")
4.02
>>> test_result("COc1ccc2c(c1)C(=O)N1CCC[C@H]1c1nc3ccc(OC)cc3c(=O)n1-2 [circumdatin D]")
5.72
>>> test_result("C[C@@H]1NC(=O)c2cc(O)ccc2-n2c1nc1ccccc1c2=O [circumdatin C]")
4.07
